The reported measurements were obtained from patent US9266964.

- measured.on: T1, wild type pKal catalytic domain (human, UniProt P03952 391-638, limits assumed)
- T1 construct: domain: catalytic domain; also called WT cat; Domain; not shown: His tag fusion
- test.name: apparent Ki (Ki,app), enzyme inhibition, wild type pKal catalytic domain
pKi: −log10 of the molar value.
attribute.measured: pKi

>  <binder>
M35-G04 (antibody, V domains shown, also called 559A-M35-G04; 559A-M0035-G04) VH: EVQLLESGGGLVQPGGSLRLSCAASGFTFSYYHMSWVRQAPGKGLEWVSVISPSGGSTKYADSVKGRFTISRDNSKNTLYLQMNSLRAEDTAVYYCARGGSSDYAWGSYRRPYYFDYWGQGTLVTVSS VL: DIQMTQSPATLSLSPGERATLSCRASQSVSSYLAWYQQKPGQAPRLLIYDASNRATGIPARFSGSGSGTDFTLTISSLEPEDFAVYYCQQRSNWPRGFTFGPGTKVDIK

>  <quantitative.readout>
9.10

$$$$
>  <binder>
DX-2922 (antibody, V domains shown, also called X101-A01; 559A-X0101-A01) VH: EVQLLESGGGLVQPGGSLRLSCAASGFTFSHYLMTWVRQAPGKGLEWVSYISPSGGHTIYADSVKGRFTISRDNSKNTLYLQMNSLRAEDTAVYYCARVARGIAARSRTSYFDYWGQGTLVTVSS VL: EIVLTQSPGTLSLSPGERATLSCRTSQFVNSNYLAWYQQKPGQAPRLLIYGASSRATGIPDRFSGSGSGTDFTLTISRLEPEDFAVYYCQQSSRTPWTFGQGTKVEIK

>  <quantitative.readout>
9.66

$$$$
